Biological target: Nonstructural protein 1 (Influenza A virus)
Sequence (Q194T2 whole entry): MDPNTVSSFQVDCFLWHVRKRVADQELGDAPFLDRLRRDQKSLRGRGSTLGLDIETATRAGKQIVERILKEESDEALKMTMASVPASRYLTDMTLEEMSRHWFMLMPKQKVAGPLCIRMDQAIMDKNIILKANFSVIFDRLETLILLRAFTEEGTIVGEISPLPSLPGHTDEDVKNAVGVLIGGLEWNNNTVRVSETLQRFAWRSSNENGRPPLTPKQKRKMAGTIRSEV
Format: functional, Influenza A virus (A/California/07/2009(H1N1))
Calls of active or inactive are those of the source.
Entries and their measured IC50 follow.
measured-metric: IC50

molecule: COc1ccccc1N1CCN(Cc2cc(Br)c(O)c3ncccc23)CC1
system-tested: Nonstructural protein 1 (Influenza A virus)
result: 15.4 µM (active)
--
molecule: Cc1coc2c(O)cc3c(c12)OC1(N2CCCCC2)C(=O)NCCCC31 (stereo not given)
system-tested: Nonstructural protein 1 (Influenza A virus)
result: > 100 µM (active)
--
molecule: Cc1ccc(/C(=N/Nc2ncnc3ccccc23)C(=O)O)cc1
system-tested: Nonstructural protein 1 (Influenza A virus)
result: 9.46 µM (active)
--
molecule: O=C(N/N=C/c1cc2c3c(c1O)CCCN3CCC2)c1ccccc1O
system-tested: Nonstructural protein 1 (Influenza A virus)
result: 3.22 µM (active)
--
molecule: Cc1nnc2sc(SCC(=O)Nc3ccc(Cl)cc3)nn2c1=O
system-tested: Nonstructural protein 1 (Influenza A virus)
result: 9.75 µM (active)

====

EC50 listing for selected compounds.
Molecular target: Melanocortin receptor 4 (Homo sapiens, UniProt P32245)
Sequence (P32245 whole entry): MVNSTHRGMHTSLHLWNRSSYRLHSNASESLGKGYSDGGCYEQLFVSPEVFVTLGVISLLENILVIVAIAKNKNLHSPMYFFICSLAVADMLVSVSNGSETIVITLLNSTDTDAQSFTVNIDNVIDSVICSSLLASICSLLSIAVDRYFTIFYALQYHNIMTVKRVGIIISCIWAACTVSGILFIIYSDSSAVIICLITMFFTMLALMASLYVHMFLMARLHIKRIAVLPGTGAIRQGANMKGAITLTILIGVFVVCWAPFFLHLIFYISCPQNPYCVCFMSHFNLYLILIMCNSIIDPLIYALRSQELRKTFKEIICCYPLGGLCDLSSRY
Assay type: functional, cell-based
Calls of active or inactive are those of the source.

compound: OC(CNCCc1ccc(C(F)(F)F)cc1)COc1cccc2ccccc12 (centres undefined)
system-tested: Melanocortin receptor 4 (Homo sapiens, UniProt P32245);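 also: human U2OS cells with tagged receptor and beta-arrestin; potency of agonists that increase receptor coupling to beta-arrestin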
EC50: > 89.2 µM (inactive)
--
compound: CCOC(=O)C(/C=N/c1ccc2c(c1)nnn2-c1ccc(Cl)cc1)=C(\O)OCC
system-tested: Melanocortin receptor 4 (Homo sapiens, UniProt P32245);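 also: human U2OS cells with tagged receptor and beta-arrestin; potency of agonists that increase receptor coupling to beta-arrestin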
EC50: > 89.2 µM (inactive)
--
compound: O=C(CCN1C(=O)/C(=C/C=C/c2ccccc2)SC1=S)Nc1cccnc1
system-tested: Melanocortin receptor 4 (Homo sapiens, UniProt P32245);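 also: human U2OS cells with tagged receptor and beta-arrestin; potency of agonists that increase receptor coupling to beta-arrestin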
EC50: > 89.2 µM (inactive)
--
compound: Nc1ccc(C2(c3ccc(N)cc3)c3ccccc3-c3ccccc32)cc1
system-tested: Melanocortin receptor 4 (Homo sapiens, UniProt P32245);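 also: Cell-based assay with luminescence read-out, confirmatory dose-response testing for agonist activity of biased ligands at MC4R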;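 also: human U2OS cells with tagged receptor and beta-arrestin; potency of agonists that increase receptor coupling to beta-arrestin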
EC50: > 89.2 µM (inactive)

====

Molecular target: Histone-lysine N-methyltransferase NSD2 (Homo sapiens, UniProt O96028)
Sequence (O96028 whole entry): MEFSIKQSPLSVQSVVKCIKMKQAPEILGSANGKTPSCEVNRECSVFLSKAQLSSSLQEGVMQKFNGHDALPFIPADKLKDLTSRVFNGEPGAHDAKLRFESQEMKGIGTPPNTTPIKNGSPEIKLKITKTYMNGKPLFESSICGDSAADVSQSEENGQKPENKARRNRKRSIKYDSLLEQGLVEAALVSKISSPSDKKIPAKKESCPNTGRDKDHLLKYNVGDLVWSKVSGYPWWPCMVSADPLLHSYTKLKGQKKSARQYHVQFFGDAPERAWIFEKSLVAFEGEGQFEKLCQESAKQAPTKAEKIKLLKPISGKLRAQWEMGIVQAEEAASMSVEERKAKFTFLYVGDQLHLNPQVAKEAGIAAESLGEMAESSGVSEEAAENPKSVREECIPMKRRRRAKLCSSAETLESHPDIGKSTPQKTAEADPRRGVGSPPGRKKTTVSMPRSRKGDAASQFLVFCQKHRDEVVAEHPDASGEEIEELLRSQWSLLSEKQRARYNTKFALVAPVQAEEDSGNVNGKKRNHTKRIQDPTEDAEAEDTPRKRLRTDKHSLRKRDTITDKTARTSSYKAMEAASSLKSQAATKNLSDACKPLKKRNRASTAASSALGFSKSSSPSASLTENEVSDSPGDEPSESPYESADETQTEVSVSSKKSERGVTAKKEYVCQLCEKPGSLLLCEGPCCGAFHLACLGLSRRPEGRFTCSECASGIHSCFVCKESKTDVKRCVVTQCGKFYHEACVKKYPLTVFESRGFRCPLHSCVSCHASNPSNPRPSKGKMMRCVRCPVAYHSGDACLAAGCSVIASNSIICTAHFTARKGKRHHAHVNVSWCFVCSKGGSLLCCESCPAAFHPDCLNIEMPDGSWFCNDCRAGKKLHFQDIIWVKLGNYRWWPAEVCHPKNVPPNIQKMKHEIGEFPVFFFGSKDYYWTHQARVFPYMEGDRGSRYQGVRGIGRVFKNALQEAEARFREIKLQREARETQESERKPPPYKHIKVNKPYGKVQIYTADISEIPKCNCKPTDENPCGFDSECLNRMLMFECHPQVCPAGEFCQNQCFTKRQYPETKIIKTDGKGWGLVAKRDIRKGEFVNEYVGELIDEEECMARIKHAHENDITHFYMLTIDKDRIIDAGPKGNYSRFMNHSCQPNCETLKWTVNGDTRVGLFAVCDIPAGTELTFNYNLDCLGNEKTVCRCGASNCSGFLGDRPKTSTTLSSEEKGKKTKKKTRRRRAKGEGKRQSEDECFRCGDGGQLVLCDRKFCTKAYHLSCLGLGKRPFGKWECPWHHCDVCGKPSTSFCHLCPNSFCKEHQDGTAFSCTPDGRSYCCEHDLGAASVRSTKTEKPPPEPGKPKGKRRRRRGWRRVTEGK
Format: biochemical
Activity calls are given as the source filed them.
Possible outcomes: T for active, F for inactive

molecule: C[n+]1cccc2cccc([O-])c21
group: T

molecule: O=C1C(=O)N(CCS(=O)(=O)c2ccccc2)c2ccc(F)cc21
group: T

molecule: COC1=C(Br)C(=O)c2nc(C)ccc2C1=O
group: T

molecule: COc1cccc(=O)c2c(C)n(-c3ccc(C(=O)O)cc3)c(C)c12
group: F

molecule: CC(C(=O)Nc1ccc(O)cc1C(=O)O)N1C(=O)/C(=C\c2cccs2)SC1=S (stereo not given)
group: F

====

Molecular target: Glucose-6-phosphate 1-dehydrogenase (Homo sapiens)
Sequence (P11413 whole entry): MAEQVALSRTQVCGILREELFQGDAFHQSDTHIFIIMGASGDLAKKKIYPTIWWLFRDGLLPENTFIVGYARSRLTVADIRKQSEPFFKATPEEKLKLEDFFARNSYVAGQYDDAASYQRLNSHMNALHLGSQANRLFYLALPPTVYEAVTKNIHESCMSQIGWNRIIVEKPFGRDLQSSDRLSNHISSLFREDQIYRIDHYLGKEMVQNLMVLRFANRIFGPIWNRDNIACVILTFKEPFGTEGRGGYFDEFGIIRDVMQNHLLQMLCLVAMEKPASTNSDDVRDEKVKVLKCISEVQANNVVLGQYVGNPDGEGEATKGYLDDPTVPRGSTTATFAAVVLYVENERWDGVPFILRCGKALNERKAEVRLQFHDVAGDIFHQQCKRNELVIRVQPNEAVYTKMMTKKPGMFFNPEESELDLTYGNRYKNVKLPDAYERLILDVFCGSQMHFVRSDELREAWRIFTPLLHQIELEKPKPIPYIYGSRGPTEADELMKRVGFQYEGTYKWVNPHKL
Experiment: human G6PD enzyme inhibitors, dose response, selectivity assay for P. falciparum G6PD inhibitor project, biochemical, fluorescence (AID 504792)
Type: functional
Active and inactive are the calls of the source.

molecular-string: COC1=C(Br)C(=O)c2nc(C)ccc2C1=O
IC50: 53.7 µM (inactive)
//
molecular-string: O=C(Cn1sc2ccccc2c1=O)Nc1ccc(Br)cc1
IC50: 24.2 µM (inactive)
//
molecular-string: CCCCCCCCSC1=CC(=O)C(OC)=C(OC)C1=O
IC50: 48.1 µM (inactive)
//
molecular-string: Cc1ccsc1/C=N\NC(=O)CC(=O)NCc1ccccc1
IC50: > 80 µM (inactive)

====

Molecular target: 5-hydroxytryptamine receptor 5A (Homo sapiens)
Sequence (P47898 whole entry): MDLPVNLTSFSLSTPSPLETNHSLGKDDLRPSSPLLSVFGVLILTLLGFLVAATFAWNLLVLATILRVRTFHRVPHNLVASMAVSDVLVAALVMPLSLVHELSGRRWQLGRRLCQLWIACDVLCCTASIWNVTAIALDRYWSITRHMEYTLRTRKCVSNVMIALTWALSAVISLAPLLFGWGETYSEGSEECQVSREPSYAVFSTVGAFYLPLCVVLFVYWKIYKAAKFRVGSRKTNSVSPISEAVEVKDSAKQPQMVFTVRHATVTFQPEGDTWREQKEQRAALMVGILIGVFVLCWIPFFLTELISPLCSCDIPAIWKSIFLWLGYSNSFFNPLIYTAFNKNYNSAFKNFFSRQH
Test: Counterscreen for agonists of OPRM1-OPRD1 heterodimerization: luminescence-based cell-based high throughput dose response assay to identify agonists of 5-hydroxytryptamine (serotonin) 5A receptor (HTR5A). [Related pubchem assays (depositor defined):AID504326, AID504355, AID504692, AID504904, AID504905]
Format: functional
Structures can show the parent of a compound that is named as a salt. The source made the active and inactive calls.
measured-metric: EC50

compound: c1ccc(C2(N3CCCCC3)CCCCC2)cc1 [PHENCYCLIDINE HYDROCHLORIDE]
measured-metric: EC50
result: > 92.5 µM (inactive)
--
compound: CN(C)C(CNC(=O)c1ccc(C(F)(F)F)cc1)c1ccco1 (stereo not given)
measured-metric: EC50
result: > 92.4 µM (inactive)
--
compound: O=c1c2ccc(Cl)cc2[nH]c(=S)n1Cc1cccnc1
measured-metric: EC50
result: > 92.5 µM (inactive)
--
compound: Cc1ccccc1[N+]1=C2SCCN2C(O)(c2ccccc2)C1 (stereo not given)
measured-metric: EC50
result: > 92.5 µM (inactive)
--
compound: C/C(=N/Nc1ccnc2cc(Cl)ccc12)c1ccc(N)cc1
measured-metric: EC50
result: > 92.4 µM (inactive)

====

Molecular target: Ubiquitin-conjugating enzyme E2 N (Homo sapiens, UniProt P61088);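 also: Dose-response confirmation in a TR-FRET assay detecting UBC13-driven polyubiquitin chain formation, inhibition measured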
Sequence (P61088 whole entry): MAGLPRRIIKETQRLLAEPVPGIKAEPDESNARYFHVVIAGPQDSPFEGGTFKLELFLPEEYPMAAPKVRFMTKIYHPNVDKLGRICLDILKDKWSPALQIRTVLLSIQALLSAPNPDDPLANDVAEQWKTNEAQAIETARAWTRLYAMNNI
Format: functional
Activity calls are given as the source filed them.
Outcomes: Yes (active), No (inactive)

molecule: CCC(=O)c1cc2c(C)cc(=O)oc2c(C)c1O
group: Yes
--
molecule: CCN1CCN(CCNC(=O)c2ccc(/C=C3/Sc4ccccc4N(Cc4cccc(C)c4)C3=O)cc2)CC1
group: No
--
molecule: COc1ccc(CNC[C@@H](CCCCN(C)Cc2ccc(OC)cc2)N2C[C@H](c3ccccc3)N(CCc3ccc(Cl)c(Cl)c3)C(=O)C2=O)cc1
group: No
--
molecule: NC[C@@H]1O[C@H](C23CC4CC(CC(C4)C2)C3)Cc2c1ccc(O)c2O
group: No
--
molecule: CCCC[C@H](CN[C@@H](CNC)[C@H](C)CC)NCCC12CCC(CC1)C2
group: No
--
molecule: CN1CCC(N(C)C(=O)/C=C/c2cn(-c3ccccc3)nc2-c2cccs2)CC1
group: No
--
molecule: CCOc1cc(C2C(C#N)=C(N)Oc3[nH]nc(-c4ccccc4)c32)ccc1O (stereo not drawn)
group: No
--
molecule: NNC(=O)c1ccc(CN2C(=O)c3cccc4cccc2c34)cc1
group: Yes

====

Biological target: Replicative DNA helicase DnaB (Mycobacterium tuberculosis, UniProt P9WMR3)
Sequence (P9WMR3 whole entry): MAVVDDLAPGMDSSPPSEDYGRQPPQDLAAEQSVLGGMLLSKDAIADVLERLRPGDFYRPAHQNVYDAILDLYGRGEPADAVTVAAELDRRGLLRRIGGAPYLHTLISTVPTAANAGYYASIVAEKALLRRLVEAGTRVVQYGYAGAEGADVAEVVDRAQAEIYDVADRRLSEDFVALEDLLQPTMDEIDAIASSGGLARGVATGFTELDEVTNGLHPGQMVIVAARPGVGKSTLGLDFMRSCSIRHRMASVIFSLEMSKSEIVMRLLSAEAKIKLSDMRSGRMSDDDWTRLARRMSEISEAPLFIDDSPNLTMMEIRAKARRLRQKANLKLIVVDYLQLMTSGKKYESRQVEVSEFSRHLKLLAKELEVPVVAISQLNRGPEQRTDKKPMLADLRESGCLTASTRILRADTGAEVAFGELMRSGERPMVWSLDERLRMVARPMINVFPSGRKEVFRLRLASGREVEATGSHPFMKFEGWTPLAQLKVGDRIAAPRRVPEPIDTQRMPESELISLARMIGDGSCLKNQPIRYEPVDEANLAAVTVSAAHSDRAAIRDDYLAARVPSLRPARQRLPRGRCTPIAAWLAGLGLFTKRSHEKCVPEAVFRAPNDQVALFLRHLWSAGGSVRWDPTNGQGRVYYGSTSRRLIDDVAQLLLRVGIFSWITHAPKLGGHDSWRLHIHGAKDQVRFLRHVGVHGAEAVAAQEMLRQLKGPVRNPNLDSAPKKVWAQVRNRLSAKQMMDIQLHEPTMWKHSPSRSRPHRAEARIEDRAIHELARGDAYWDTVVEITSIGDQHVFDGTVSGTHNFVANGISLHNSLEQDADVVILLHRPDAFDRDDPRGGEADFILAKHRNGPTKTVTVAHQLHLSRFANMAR
Test: DnaB intein splicing inhibitors, dose response, biochemical, cell-free fluorescence (AID 449749)
Format: functional
The source made the active and inactive calls.
Labels: y for active, n for inactive

molecule: CN1CCN(C(c2ccc(C(F)(F)F)cc2)c2cc(Cl)c3cccnc3c2O)CC1 (configuration not stated)
system-tested: Replicative DNA helicase DnaB (Mycobacterium tuberculosis, UniProt P9WMR3)
group: y
--
molecule: C/C(=N\NC(=O)CC#N)c1cc2ccccc2oc1=O
system-tested: Replicative DNA helicase DnaB (Mycobacterium tuberculosis, UniProt P9WMR3)
group: y
--
molecule: CCCc1n[nH]c2c1C(CCC)C(C#N)=C(N)O2 (configuration not stated)
system-tested: Replicative DNA helicase DnaB (Mycobacterium tuberculosis, UniProt P9WMR3)
group: y
--
molecule: COc1cc(/C=N\NC(=O)c2ccccc2F)ccc1Oc1ccc([N+](=O)[O-])cn1
system-tested: Replicative DNA helicase DnaB (Mycobacterium tuberculosis, UniProt P9WMR3)
group: y
--
molecule: Cc1nnc(NC(=O)c2nc(S(=O)(=O)Cc3ccccc3C)ncc2Cl)s1
system-tested: Replicative DNA helicase DnaB (Mycobacterium tuberculosis, UniProt P9WMR3)
group: n
--
molecule: COc1ccc(CNC(=O)C(c2ccc(C)o2)N(C(=O)c2snc(C(N)=O)c2N)c2ccccc2OC)cc1 (configuration not stated)
system-tested: Replicative DNA helicase DnaB (Mycobacterium tuberculosis, UniProt P9WMR3)
group: n
--
molecule: Cc1nnc(N/N=C/c2cccc(OCc3ccc(Cl)c(Cl)c3)c2)n1N
system-tested: Replicative DNA helicase DnaB (Mycobacterium tuberculosis, UniProt P9WMR3)
group: y
--
molecule: CCOc1cc(C2C(C#N)=C(N)Oc3[nH]nc(-c4ccccc4)c32)ccc1O (configuration not stated)
system-tested: Replicative DNA helicase DnaB (Mycobacterium tuberculosis, UniProt P9WMR3)
group: y
--
molecule: O=C(Oc1ccccc1C(=O)Nc1ccccc1)c1ccccc1Br
system-tested: Replicative DNA helicase DnaB (Mycobacterium tuberculosis, UniProt P9WMR3)
group: y
--
molecule: Cc1[nH]n(-c2ccccc2)c(=O)c1C(C[N+](=O)[O-])c1ccccc1Cl (configuration not stated)
system-tested: Replicative DNA helicase DnaB (Mycobacterium tuberculosis, UniProt P9WMR3)
group: y
--
molecule: CCOC(=O)c1nn(-c2ccc(C)cc2)c(=O)c2c(N)scc12
system-tested: Replicative DNA helicase DnaB (Mycobacterium tuberculosis, UniProt P9WMR3)
group: y
--
molecule: O=C1C(Cl)=C(N2CCOCC2)C(=O)N1c1cccc(Cl)c1
system-tested: Replicative DNA helicase DnaB (Mycobacterium tuberculosis, UniProt P9WMR3)
group: y
--
molecule: c1ccc(-c2nc(N3CCCCCC3)nc(-n3ccnc3)n2)cc1
system-tested: Replicative DNA helicase DnaB (Mycobacterium tuberculosis, UniProt P9WMR3)
group: y
--
molecule: CCOc1ccc(-n2c(C)cc(C(=O)CCl)c2C)cc1
system-tested: Replicative DNA helicase DnaB (Mycobacterium tuberculosis, UniProt P9WMR3)
group: y
--
molecule: Cc1ccc(-c2nnc(Sc3nc4ccccc4o3)c3ccccc23)cc1
system-tested: Replicative DNA helicase DnaB (Mycobacterium tuberculosis, UniProt P9WMR3)
group: y
--
molecule: O=[N+]([O-])c1ccc(S(=O)(=O)c2cccc(C(F)(F)F)c2)nc1
system-tested: Replicative DNA helicase DnaB (Mycobacterium tuberculosis, UniProt P9WMR3)
group: n
--
molecule: COCCN(C(=O)CCl)C(C(=O)NC1CCCCC1)c1ccccc1C (configuration not stated)
system-tested: Replicative DNA helicase DnaB (Mycobacterium tuberculosis, UniProt P9WMR3)
group: y

Just for reference, ChEMBL document CHEMBL1201862 is where these values come from.
